Assay system: UniProt Q8NET8
Experiment: Whole-cell patch clamp, hTRPV3 Phase 1 / Phase 2 currents
Assay type: cell-based
Recorded conditions: Phase 1 current, inward, whole-cell patch clamp; read-out: hTRPV3 Patch P1 Inwd
pIC50: −log10 of the molar value.
Answer each item with its documented pIC50.

In the examples that follow, each entry is paired with its recorded pIC50.
CCc1ccccc1C(=O)c1ccc(C2CCN(C(=O)c3ncccc3Cl)C2)c(CO)c1 (stereo not shown); < 6.00
OCCc1cc(Oc2ccccc2Cl)ccc1N1CC[C@H](Oc2ncccc2Cl)C1; 7.00 to 8.00
CCc1nccnc1-c1ccc(C2CCN(C(=O)c3ccc(F)cn3)C2)c(CO)c1 (stereo not shown); < 6.00
O=C(c1ccc(C2CCN(C(=O)c3ncccc3Cl)C2)c(CO)c1)c1ccccc1Cl (stereo not shown); < 6.00
CCOc1ccccc1-c1ccc(C2CCN(C(=O)c3ccc(F)cn3)C2)c(CO)c1 (stereo not shown); 7.00 to 8.00
CC(C)(C)OC(=O)c1ccccc1N1CC[C@@H](Oc2ccc(C(F)(F)F)cn2)C1; < 6.00

Each of the following entries comes with a recorded value; kindly state pIC50 for each.
1. CCc1ccccc1Oc1ccc(N2CC[C@H](Oc3ccccn3)C2)c(CO)c1
2. OCCOc1cc(-c2ccccc2)ccc1N1CC[C@H](Oc2ccc(C(F)(F)F)cn2)C1
3. COCc1ccccc1Oc1ccc(N2CC[C@H](Oc3ccc(F)cn3)C2)c(CCO)c1
4. CCc1ccccc1Oc1ccc(N2CC[C@H](Oc3ncccc3Cl)C2)c(CCO)c1
5. O=C(c1ccc(N2CC[C@H](Oc3ncccc3Cl)C2)c(CO)c1)c1ccccc1Cl
6. NC(=O)c1cc(-c2ncc[nH]2)ccc1N1CC[C@@H](Oc2ccc(C(F)(F)F)cn2)C1

Given back:
7.00 to 8.00
6.00 to 7.00
6.00 to 7.00
> 8.00
6.00 to 7.00
< 6.00

* * *

Experiment: Aqueous solubility assay in Normal Ringer Solution
Recorded conditions: Normal Ringer Solution, saline or isotonic, kinetic from dmso stock
Measured endpoint: solubility at 40 min

CC(C)c1ccccc1Oc1ccc(C2CC(=O)N(Cc3ccccn3)C2)c(CO)c1 (stereo not shown) [Compound 2-93]; ~4.2 µM

Go through the list and state solubility at 40 min for each entry.
1. OCc1cc(Oc2ccccc2)ccc1N1CC[C@H](Oc2ncccc2Cl)C1 [Compound 1-168]
2. Cc1ccc(C(=O)N2CCC(c3ccc(-c4ccccc4C(C)C)cc3CO)C2)nc1 (stereo not shown) [Compound 2-79]
3. OC[C@@H]1C[C@@H](Oc2ccc(C(F)(F)F)cn2)CN1c1ccc(-c2ccccc2)cc1 [Compound 1-175]

Given back:
1: ~0.5 µM; 2: 7.38 µM; 3: ~0.68 µM

* * *

Assay system: hTRPV3 (Homo sapiens (Human))
Experiment: Whole-cell patch clamp, hTRPV3 Phase 1 / Phase 2 currents
Type: cell-based
Recorded conditions: Phase 2 current, inward, whole-cell patch clamp; read-out: hTRPV3 Patch P2 Inwd
Measured endpoint: IC50

Recorded IC50, per entry:
OCCc1cc(Oc2ccccc2F)ccc1N1CC[C@H](Oc2ccccn2)C1; 100 to 1000 nM
NC(=O)c1cc(-c2ccccc2)ccc1N1CC[C@@H](Oc2ccccn2)C1; 100 to 1000 nM
COCc1ccccc1Oc1ccc(N2CC[C@H](Oc3ccc(F)cn3)C2)c(CCO)c1; 100 to 1000 nM

Could you now consider this next compound?
Asked: Which IC50 reading was recorded for the compound Cc1ccc(C(=O)c2ccc(N3CC[C@H](Oc4ncccc4Cl)C3)c(CCO)c2)cc1 ?
Given back: 100 to 1000 nM

* * *

Assay system: hTRPV3 (Homo sapiens (Human), UniProt Q8NET8)
Sequence (Q8NET8 whole entry): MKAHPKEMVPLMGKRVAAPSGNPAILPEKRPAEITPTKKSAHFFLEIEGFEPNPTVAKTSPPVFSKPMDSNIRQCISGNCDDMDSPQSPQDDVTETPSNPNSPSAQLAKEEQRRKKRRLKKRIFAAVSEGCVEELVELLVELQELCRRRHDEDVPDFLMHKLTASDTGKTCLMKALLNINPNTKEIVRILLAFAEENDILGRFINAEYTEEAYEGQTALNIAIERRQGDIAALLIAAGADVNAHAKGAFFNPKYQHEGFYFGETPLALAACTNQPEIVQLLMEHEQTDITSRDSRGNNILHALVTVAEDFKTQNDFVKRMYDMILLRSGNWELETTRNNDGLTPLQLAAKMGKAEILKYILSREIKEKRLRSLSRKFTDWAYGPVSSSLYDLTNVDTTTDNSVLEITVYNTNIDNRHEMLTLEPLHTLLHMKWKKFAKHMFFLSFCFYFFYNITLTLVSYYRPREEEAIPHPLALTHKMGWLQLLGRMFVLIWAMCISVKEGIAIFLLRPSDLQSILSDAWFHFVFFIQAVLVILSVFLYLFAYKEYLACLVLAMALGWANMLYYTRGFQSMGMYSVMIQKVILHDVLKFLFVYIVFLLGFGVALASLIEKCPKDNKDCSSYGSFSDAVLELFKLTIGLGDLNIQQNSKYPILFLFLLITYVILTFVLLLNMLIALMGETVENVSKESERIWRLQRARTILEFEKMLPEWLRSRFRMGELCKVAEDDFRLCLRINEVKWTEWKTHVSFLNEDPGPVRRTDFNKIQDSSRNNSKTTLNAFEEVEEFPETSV
Experiment: hTRPV3 HAMA IC50 assay (Hamamatsu FDSS6000 calcium flux, TRex-293 cells)
Recorded conditions: hTRPV3 HAMA IC50 (nM) (30 min), 30 min
Please respond with reported IC50 for every item in the list.
One number for each entry, in nM.

Cc1ccccc1Oc1ccc(N2CC[C@H](Oc3ncccc3Cl)C2)c(CCO)c1; 6600
Cc1ccccc1-c1ccc(N2CC[C@H](Oc3ccc(C(F)(F)F)cn3)C2)c(CO)n1; 4600
CCc1ccccc1Oc1ccc(N2CC[C@H](Oc3ncccc3Cl)C2)c(CCO)c1; 5900

Asked: Recorded IC50 of CCc1ccccc1Oc1ccc(N2CC[C@H](Oc3ncccc3Cl)C2)c(CO)c1 , please.
Given back: 1790

* * *

Experiment: Aqueous solubility assay in Normal Ringer Solution
Recorded conditions: Normal Ringer Solution, room temperature
Measured endpoint: Solubility Ringer (nM)

Guide cases for Solubility Ringer (nM), answers given:
CC(C)(C)OC(=O)N1CC=C(c2ccc(N3CC[C@H](Oc4ccc(C(F)(F)F)cn4)C3)c(CO)c2)CC1; BLQ
Cc1ccccc1Oc1ccc(N2CC[C@H](Oc3ncccc3Cl)C2)c(CO)c1; BLQ
OCc1cc(Oc2ccccc2Cl)ccc1N1CC[C@H](Oc2ncccc2Cl)C1; BLQ
CCc1ccccc1Oc1ccc(N2CC[C@H](Nc3ncccc3Cl)C2)c(CO)c1; BLQ
NC(=O)c1cc(-c2ccccc2)ccc1N1CC[C@H](Oc2ccc3cc(Cl)ccc3n2)C1; BLQ

Provide each entry's Solubility Ringer (nM) from the list below.
1. Cc1ccccc1Oc1ccc(N2CC[C@H](Oc3ncccc3Cl)C2)c(CCO)c1
2. OCc1cc(-c2ccccc2OC(F)(F)F)ccc1N1CC[C@H](Oc2ccc(C(F)(F)F)cn2)C1
3. CC(C)Oc1ccccc1N1CC[C@H](Oc2ccc3cc(Cl)ccc3n2)C1

Given back:
["BLQ", "BLQ", "BLQ"]

* * *

Experiment: Aqueous solubility assay in Normal Ringer Solution
Recorded conditions: Normal Ringer Solution, saline or isotonic, kinetic from dmso stock
Structures can show the parent of a compound that is named as a salt.
Please go through the items and note down their solubility at 40 min.

CCc1c(Cl)ncnc1Oc1ccc(N2CC[C@H](Oc3ncccc3Cl)C2)c(CO)c1; ~2.1 µM

Batch request: solubility at 40 min for each of the following compounds.
1. NCc1cc(-c2ccccc2)ccc1N1CC[C@@H](Oc2ccc(C(F)(F)F)cn2)C1 [Compound 1-109, hydrochloride]
2. COc1ccccc1-c1ccc(N2CC[C@H](Oc3ccc(F)cn3)C2)c(CO)n1
3. COc1ccccc1Oc1ccc(N2CC[C@H](Oc3ncccc3Cl)C2)c(CCO)c1
4. Cc1ccccc1C(O)c1ccc(N2CC[C@H](Oc3ncccc3Cl)C2)c(CO)c1 (some centres unmarked)

Given back:
1. > 2.95 µM
2. ~2.3 µM
3. ~1.5 µM
4. > 9 µM

* * *

Assay system: hTRPV3 (Homo sapiens (Human))
Experiment: Whole-cell patch clamp, hTRPV3 Phase 1 / Phase 2 currents
Format: cell-based
Recorded conditions: Phase 2 current, inward, whole-cell patch clamp; read-out: hTRPV3 Patch P2 Inwd
Structures can show the parent of a compound that is named as a salt.
Measured endpoint: IC50

Below, each entry is followed by its recorded IC50 result.
COc1ccccc1Oc1ccc(N2CC[C@H](Oc3ccc(C)cn3)C2)c(CO)n1; > 1 µM
Cc1ccc(O[C@H]2CCN(c3ccc(-c4ncccc4C)cc3CO)C2)nc1; > 1 µM
NCc1ccccc1N1CC[C@@H](Oc2ccc(C(F)(F)F)cn2)C1; > 1 µM

List reported IC50 for each of these compounds:
1. CC(C)(C)OC(=O)c1ccccc1N1CC[C@@H](Oc2ccc(C(F)(F)F)cn2)C1
2. Cc1ccc(O[C@H]2CCN(c3ccc(Oc4ccccc4)nc3CO)C2)nc1
3. OCc1cc(-c2ccccc2F)ccc1N1CC[C@H](Oc2ccc(C(F)(F)F)cn2)C1
4. NC(=O)c1cc(-c2ccccn2)ccc1N1CC[C@H](Oc2ccc(C(F)(F)F)cn2)C1
5. NC(=O)c1ccccc1-c1ccc(N2CC[C@H](Oc3ccc(C(F)(F)F)cn3)C2)c(CO)c1

Given back:
1. > 1 µM
2. 0.1 to 1 µM
3. 0.01 to 0.1 µM
4. > 1 µM
5. > 1 µM

List the reported IC50 of each compound below.
1. NC(=O)c1cc(-c2ccncc2)ccc1N1CC[C@H](Oc2ccc(C(F)(F)F)cn2)C1
2. OCc1ccc(-c2ccccc2)cc1N1CC[C@H](Oc2ccc(C(F)(F)F)cn2)C1
3. CC(C)Oc1ccccc1N1CC[C@H](Oc2ccc(C(F)(F)F)cn2)C1

Given back:
1: > 1 µM; 2: > 1 µM; 3: > 1 µM

Each compound below has a reported value. Please supply its IC50.
1. OCc1cc(-c2ccccc2)ccc1N1CC[C@H](Nc2nc(C(F)(F)F)cs2)C1
2. NC(=O)c1cc(-c2ccccc2)cnc1N1CC[C@H](Nc2ccc(C(F)(F)F)cn2)C1
3. Cc1ccccc1-c1ccc(N2CC[C@H](Oc3ccc(Cl)cn3)C2)c(CO)n1

Given back:
0.1 to 1 µM
> 1 µM
0.01 to 0.1 µM

I'm hoping you can list IC50 for every compound here, please.
1. NC(=O)c1cc(Oc2ccccc2Cl)ccc1N1CC[C@H](Oc2ncccc2Cl)C1
2. NC(=O)c1cc(-c2ccncc2)ccc1N1CC[C@@H](Oc2ncccc2Cl)C1 [Compound 1-82, hydrochloride]

Given back:
0.1 to 1 µM
> 1 µM
